Target: T1, Mcl-1, Q07820
T1 chain: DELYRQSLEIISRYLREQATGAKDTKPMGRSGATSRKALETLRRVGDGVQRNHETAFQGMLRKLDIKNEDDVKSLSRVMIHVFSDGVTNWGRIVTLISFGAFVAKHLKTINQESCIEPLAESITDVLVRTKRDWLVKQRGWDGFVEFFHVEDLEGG
Assay: peptide SPOT array, c-Myc-tagged receptor at 1 uM or 100 nM, anti-c-Myc-Cy3
quantityMeasured: SPOT signal as a fraction of Bim BH3's signal on the same receptor and array
// no unit string in output, number only

Lookup: # lookup: SPOT signal as a fraction of Bim BH3's signal on the same receptor and array of RGLEQHVALYLEHGADVGLRTSQGET [ASB16]
Found: 0.02
